Quick list: pEC50 per entry.
assayedSystem: monomeric N-terminal cynomolgus LTbR (ECD full length) hu IgG1 Fc-fusion kih HRYF avi biotinylated (P1AE2656) (cynomolgus, UniProt P0DOX5 223-449 = IgG part, biotinylated avi tag)
testDetails: direct ELISA
Bear in mind: pEC50 is minus log10 of a mol/L concentration; give just that figure.

Below, 3 binders whose answers are already recorded.
| binder | quantityKind | assayResult |
| --- | --- | --- |
| P1AE9457 (antibody, human IgG1, kappa, L234A L235A, V domains shown, human IgG1 PG LALA; from transgenic rabbit immunization; also called LTBR (9457)) VH: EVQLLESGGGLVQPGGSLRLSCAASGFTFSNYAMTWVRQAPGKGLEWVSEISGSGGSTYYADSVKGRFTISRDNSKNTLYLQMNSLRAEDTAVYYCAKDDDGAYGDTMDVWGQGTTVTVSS VL: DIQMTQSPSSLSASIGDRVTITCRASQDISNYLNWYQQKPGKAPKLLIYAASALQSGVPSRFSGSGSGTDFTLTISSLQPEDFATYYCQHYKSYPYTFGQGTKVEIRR | pEC50 | 9.85 |
| P1AF0080 (antibody, human IgG1, kappa, L234A L235A, V domains shown, human IgG1 PG LALA; from transgenic rabbit immunization; also called LTBR (0080)) VH: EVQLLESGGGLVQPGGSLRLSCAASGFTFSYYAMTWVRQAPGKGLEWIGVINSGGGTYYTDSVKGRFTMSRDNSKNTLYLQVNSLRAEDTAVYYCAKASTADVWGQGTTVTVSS VL: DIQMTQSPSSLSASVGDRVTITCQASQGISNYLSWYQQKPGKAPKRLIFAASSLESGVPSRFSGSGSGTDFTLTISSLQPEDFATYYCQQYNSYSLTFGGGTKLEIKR | pEC50 | 10.03 |
| P1AE9450 (antibody, human IgG1, kappa, L234A L235A, V domains shown, human IgG1 PG LALA; from transgenic rabbit immunization; also called LTBR (9450)) VH: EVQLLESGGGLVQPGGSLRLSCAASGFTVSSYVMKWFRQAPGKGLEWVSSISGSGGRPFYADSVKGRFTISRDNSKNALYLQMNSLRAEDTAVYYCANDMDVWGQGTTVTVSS VL: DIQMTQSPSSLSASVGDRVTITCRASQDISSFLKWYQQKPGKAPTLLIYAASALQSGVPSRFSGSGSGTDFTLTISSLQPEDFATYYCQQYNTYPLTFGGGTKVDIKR | pEC50 | 8.40 |

Q: Item under review: P1AE9459 (antibody, human IgG1, kappa, L234A L235A, V domains shown, human IgG1 PG LALA; from transgenic rabbit immunization) VH: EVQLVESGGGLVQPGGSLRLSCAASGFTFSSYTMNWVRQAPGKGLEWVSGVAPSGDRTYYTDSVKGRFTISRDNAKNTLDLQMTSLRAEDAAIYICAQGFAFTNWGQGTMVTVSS VL: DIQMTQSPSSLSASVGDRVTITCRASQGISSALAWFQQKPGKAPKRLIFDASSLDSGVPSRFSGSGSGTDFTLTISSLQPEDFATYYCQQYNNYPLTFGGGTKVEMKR . Reported pEC50?
Result: 10.44
